Experiment: protease stability score; higher = more stable; yeast display proteolysis, trypsin and chymotrypsin;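 further: relative to predicted unfolded state with 0 unfolded-like and 1 meaning tenfold more protease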
Here the recorded protease stability score is given for each entry.
# answer = number (no unit)

Take a look at these entries with their results.
INSERT INTO assay_data (residuestring, metric, testresult) VALUES
  ('DEETRHAREMMRIIAESLHTGDEDRLLEMIDPNVRVHVDGQDYHGREQWFQYLHEELRHLRIKHLTVTHHKVYDGRVELHLRVHGEVNGRHTEKTFIVIILKVDGRWKIESLRIE', 'protease stability score', 2.15),
  ('DEDEKWAERFLELLIRSLVTGDEKTLEELADPRVKVEIGDKILHGRDEFERFIHEARIKSVHVRRMTDINGVMLMDGETTGNIDGVDRRRRTRIWVLKINGQWHLHSYQVV', 'protease stability score', 1.41),
  ('TEEEEELHKILERMIKHLVTGDEEAILKLADPDVRVHRIIDGRELDIVGRENLRHWLHELLRQLGVDHIDVKSVTLQGDKIHMTGTMKWNGKTEETRIIFEVVNGRLKRMEFHEI', 'protease stability score', 0.982),
  ('SEEERDLKEEADRFLDHVRTGDEDTLRDLIDPNVKLRVDQGDKDIELHGREEVIKFLVHMRIHHVKLNNFRIQGNKIIHDIRVDGTINGVRRDRREHLILHIVDGKIKIVEIRVE', 'protease stability score', 1.28),
  ('HEEDEDAERAMRILVEWTKTGDEDKLRRNMDPNVKLWIDGQELHGRDSFKHLLTRFKNVKFEISDIRVLNHEEVVEIQLDTHLRIDGREHRVEIILIVIKVNGKWVMKLVEVRVR', 'protease stability score', 2.12);

Now look at this one.
Incoming: Find the recorded protease stability score belonging to DEWDNAREELKRMLFKLLETGDEDSFKRLIDPDARQHIDGQEIHGRERVYEIFYRIKNMTVHHIEDKHYEIVNGQIHSDVRIDMIVNGKRITLNIRVVMIKIDGKWYLHSEKIS and report it.
Outgoing: 1.6

----------
Test: protease stability score; higher = more stable; yeast display proteolysis, trypsin and chymotrypsin;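 further: relative to predicted unfolded state with 0 unfolded-like and 1 meaning tenfold more protease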
metric: protease stability score
# answer = number (no unit)

INSERT INTO results (residuestring, testresult) VALUES
  ('SELEQMWREAKETIEKINKTGDPRSLLENADPTVRTDYGEKDYHGREEFKKFLEWLGIKHIKDVRFRDFEVQGDKIIHDSEVDVEVGDKEFRIKSIVIALKVDGRWLITRLVFK', 1.9),
  ('SEDEELLHKVLNEFIHNVKTGDWEIITRLLDPHALLRVNGVNHIGREDLDRQLKKDFQEMRLHNIHVDDLKIQGEWIHVDTTLDIHINGVRVHFKAHIRVLKIDGRWIVHSREIR', 1.32);

Now look at this one.
Incoming: Find the recorded protease stability score belonging to NEHEETIEILFRDIVHVLRTGDWKLFSDLMDPHARYVIGDKTFHGRESWVREFDRLLEQIKGVRFDVRHVNVVGDKVHAFTDWEFNGVMFDTRLDLHIVDGRIKEMRLEIR and report it.
Outgoing: 1.12

----------
Assay: protease stability score; higher = more stable; yeast display proteolysis, trypsin and chymotrypsin;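 further: relative to predicted unfolded state with 0 unfolded-like and 1 meaning tenfold more protease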
metric: protease stability score
# answer = number (no unit)

Take a look at these entries with their results.
INSERT INTO results (residuestring, metric, testresult) VALUES
  ('DEDKHLIETFLERLERILKTGDEEDERRLADPHAKLVQGDKILHGREELIRWLRELGAKHVRLHISHLDVQGDKVETDLRLIIIQGDKEYEKDMKVHVLKVDGRWLLKSIIVE', 'protease stability score', 2.08),
  ('SEDEQDAHKWLQLFIDFLKTGDEELMEKFLDPTVRSRVGDKETHGREMLVLHLLFLGVDHIHFRHVEERVYNGRVLLIITILIRVGDKHVETEIRVEIDKINGRWLAETIHIRIR', 'protease stability score', 0.778),
  ('DEIHEDFDRFLEEYLESLRTGDWKKVEELHDPNTRVDIGDKHVIGMDLLAHLETKDFIKRGARVDMHVRRFEIQGNKIIIHGELRIHYGDKHVRINIHLDIRKINGKWIIRHEEIR', 'protease stability score', 1.13),
  ('DEFREIIRRAMEIYRHSERTGDEDTIREMVDPDVKLDIDGKEIVGWERLLEFLTRVDHIHLHLNNMKLQGDYVIHDGELRLNIDGRNISTRIVIIAEKVNGRWHMKHVEFR', 'protease stability score', 1.24),
  ('DERTKEDEKWAKLFLEWHKTGNEEAFSHFADPHTRNTINGVELIGRESLMEFSKRWIEELRFKQLHIRDFKVVNGRVHIDSELHGIINGQEISTTVKIHIDIINGQTKSVEVRIL', 'protease stability score', 1.17),
  ('SHEEEESTKVAEDWLRHVLTGDEEDMTKLADPNTKVDVGDKHMHGMRSYWEFLHEIRIKHVHVHRIHIELVNGRAFIIIDGEIHEEVGDKEVEIKSRFILIVEKVNGRWIIREVRYQRI', 'protease stability score', 1.54);

Incoming: Find the recorded protease stability score belonging to DEQEKEAKRVVEEILEILLTGDFESFLRNADPNVRIIIGDKDYWGREHTKRLLTDWRREMRVKHIDVRDIEVQGNKVKLHLESDLEINGRRTRTEMEIIVVTFNGRFESLEIRTV and report it.
Outgoing: 1.75

Incoming: Find the recorded protease stability score belonging to DEVEKSVKEWVNIVIHWLKTGNEEEILKYADPNVRLNVNGVNYVGRENAEHASREHLHELGIKHEEQKDVKIHSINGRMLLIIHMRLEYDGQHHEVTIIVRTIKINGRWHIHEVEIRND and report it.
Outgoing: 1.21

Incoming: Find the recorded protease stability score belonging to SEEEDTADEAIKLWLKLFITGDERTLARMMDPNTLNVVGDKEFHGWQFIIELVHKLFEEIRIHELTVEHLHVQGDKVRIDIRIDSRQGDKRHETKVEVILRKVNGRWTVEVIEIH and report it.
Outgoing: 2.39

Incoming: Find the recorded protease stability score belonging to DEDERFFHEMLELWMHIYETGDWNRLHELFDPNALLLIGDKQVHGREKVTHYLFEMVHRADHSESRVRELHVIDGRVHIHLELHIDQGDKHLRIEIFLHAKKVNGRWVFTKLELR and report it.
Outgoing: 1.99

Incoming: Find the recorded protease stability score belonging to DEDEELVKEWFEILMHKVITGDEDTLRNLADPNVRVDINGRDHHGREKFIEVYRRLWEDFGIDYIDSDVEEMKVYDGQAEVTIRLEIRFNGRTLELTTHYDVEKVDGKWRLRRHEVR and report it.
Outgoing: 1.29
